Target: CYP2C9 (Homo sapiens (Human), UniProt P11712)
Sequence (P11712 whole entry): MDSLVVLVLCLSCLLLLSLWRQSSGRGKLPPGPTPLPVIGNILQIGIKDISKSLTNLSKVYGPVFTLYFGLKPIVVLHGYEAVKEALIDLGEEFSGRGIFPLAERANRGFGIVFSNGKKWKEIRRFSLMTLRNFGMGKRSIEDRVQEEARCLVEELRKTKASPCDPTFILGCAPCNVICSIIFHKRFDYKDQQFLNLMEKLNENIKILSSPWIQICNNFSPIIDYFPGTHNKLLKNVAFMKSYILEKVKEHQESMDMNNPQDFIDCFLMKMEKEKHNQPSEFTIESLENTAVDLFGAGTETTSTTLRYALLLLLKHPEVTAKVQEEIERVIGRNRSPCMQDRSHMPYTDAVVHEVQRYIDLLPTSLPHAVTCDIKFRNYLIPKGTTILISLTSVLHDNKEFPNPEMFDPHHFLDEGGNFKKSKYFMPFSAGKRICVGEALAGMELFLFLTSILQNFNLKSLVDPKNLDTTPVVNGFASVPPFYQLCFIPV
Assay: Cytochrome P450 activity inhibition, CYP2C9
Assay type: in vitro ADME
Details: 10 μM, human liver microsomes, Diclofenac substrate
Provide the reported CYP inhibition (% of control) 2C9 of each item.

Consider the worked cases shown below.
>  <molecule>
CC(C)N1CCC(c2ccc(/C(=C(/CCCO)c3ccccc3)c3ccc(O)cc3)cc2)CC1 [Compound 22k]

>  <CYP inhibition (% of control) 2C9>
97 % of control

$$$$
>  <molecule>
CN1CCN(c2ccc(/C(=C(/CCCO)c3ccccc3)c3ccc([N+](=O)[O-])cc3)cc2)CC1 [Compound 18c]

>  <CYP inhibition (% of control) 2C9>
81.7 % of control

$$$$
>  <molecule>
OCCC/C(=C(\c1ccc(O)cc1)c1ccc(N2CCN(C3CCC3)CC2)cc1)c1ccccc1 [Compound 22q]

>  <CYP inhibition (% of control) 2C9>
77.7 % of control

$$$$

Let's switch to this molecule now.
Consider the molecule Cc1ccc(/C(=C(\CCCO)c2ccccc2)c2ccc(C3CCNCC3)cc2)cc1 [Compound 20k] and give its measured CYP inhibition (% of control) 2C9. 87.6 % of control

Origin of the recorded values: patent US10934303B2
